- TESTED SYSTEM: human αVβ6 (Homo sapiens, UniProt P06756+P18564)
- Construct: purchased R & D systems 3817-AV
- Sequence (P06756 31-992 limits assumed): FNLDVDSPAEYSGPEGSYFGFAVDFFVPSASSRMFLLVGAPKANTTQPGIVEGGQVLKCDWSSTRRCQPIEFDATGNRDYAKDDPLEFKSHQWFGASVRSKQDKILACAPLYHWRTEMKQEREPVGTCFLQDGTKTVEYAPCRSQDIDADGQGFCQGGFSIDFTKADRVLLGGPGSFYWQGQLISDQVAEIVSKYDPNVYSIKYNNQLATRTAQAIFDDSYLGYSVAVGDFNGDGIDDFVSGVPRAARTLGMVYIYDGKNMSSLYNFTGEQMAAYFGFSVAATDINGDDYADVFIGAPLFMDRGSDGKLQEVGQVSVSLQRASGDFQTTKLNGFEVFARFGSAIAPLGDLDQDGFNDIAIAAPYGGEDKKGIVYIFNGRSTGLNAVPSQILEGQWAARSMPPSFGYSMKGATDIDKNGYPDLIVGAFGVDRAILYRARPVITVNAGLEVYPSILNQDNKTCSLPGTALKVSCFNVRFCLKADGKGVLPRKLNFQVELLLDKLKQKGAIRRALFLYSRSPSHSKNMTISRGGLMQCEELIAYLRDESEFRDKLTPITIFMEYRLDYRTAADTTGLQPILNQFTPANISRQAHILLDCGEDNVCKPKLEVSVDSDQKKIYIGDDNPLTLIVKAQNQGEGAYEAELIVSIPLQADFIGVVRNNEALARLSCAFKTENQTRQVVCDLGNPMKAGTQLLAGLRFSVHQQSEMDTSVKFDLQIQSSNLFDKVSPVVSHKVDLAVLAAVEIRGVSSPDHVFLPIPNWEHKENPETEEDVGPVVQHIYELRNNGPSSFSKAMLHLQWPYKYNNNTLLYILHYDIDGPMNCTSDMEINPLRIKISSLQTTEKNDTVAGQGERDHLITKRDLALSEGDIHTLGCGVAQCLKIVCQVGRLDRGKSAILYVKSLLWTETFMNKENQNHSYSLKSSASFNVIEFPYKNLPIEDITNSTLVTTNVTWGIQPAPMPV
- Sequence (P18564 22-707 limits assumed): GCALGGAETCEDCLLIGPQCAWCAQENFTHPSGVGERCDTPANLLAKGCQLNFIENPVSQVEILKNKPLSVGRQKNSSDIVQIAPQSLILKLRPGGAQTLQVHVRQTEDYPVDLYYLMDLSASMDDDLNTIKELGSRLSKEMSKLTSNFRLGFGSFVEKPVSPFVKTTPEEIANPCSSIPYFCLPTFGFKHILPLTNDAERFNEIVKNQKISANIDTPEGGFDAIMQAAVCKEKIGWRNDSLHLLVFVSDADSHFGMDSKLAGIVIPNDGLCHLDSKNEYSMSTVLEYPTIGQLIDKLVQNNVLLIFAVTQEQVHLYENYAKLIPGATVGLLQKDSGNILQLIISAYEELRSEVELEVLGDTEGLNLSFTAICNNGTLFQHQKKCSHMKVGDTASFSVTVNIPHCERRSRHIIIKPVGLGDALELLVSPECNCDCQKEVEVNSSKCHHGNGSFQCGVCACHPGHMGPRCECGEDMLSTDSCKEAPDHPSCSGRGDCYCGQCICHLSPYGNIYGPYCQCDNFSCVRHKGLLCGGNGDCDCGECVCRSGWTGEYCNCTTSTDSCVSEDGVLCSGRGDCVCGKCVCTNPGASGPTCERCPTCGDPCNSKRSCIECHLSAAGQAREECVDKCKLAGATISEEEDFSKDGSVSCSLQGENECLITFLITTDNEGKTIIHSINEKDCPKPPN
- EXPERIMENTAL DETAILS: human αVβ6 HTRF binding assay
- SETTINGS: recombinant human αVβ6 integrin, FITC-conjugated fibronectin
Structures can show the parent of a compound that is named as a salt.
READOUT KIND: IC50 (nM)
Give bare numbers, in nM.

O=C(O)CC(c1cnc2c(c1)OCCN2)n1ncc2cc(OCCc3ccc4c(n3)NCCC4)ccc21 (stereo not shown) [Example 97, TFA] : 10
Cc1ncc([C@@H](CC(=O)O)n2ncc3cc(OCCc4ccc5c(n4)NCCC5)ccc32)cn1 [Example 160] : 2600
Cc1cc(C(CC(=O)O)n2ncc3cc(OCCc4ccc5c(n4)NCCC5)ccc32)cnc1OCC(C)(C)O (stereo not shown) [Example 90, TFA] : 9.5
CN(C)CCNC(=O)c1cncc(C(CC(=O)O)n2ncc3cc(OCCc4ccc5c(n4)NCCC5)ccc32)c1 (stereo not shown) [Example 158] : 13
CN(C)c1cncc(C(CC(=O)O)n2ncc3cc(OCCc4ccc5c(n4)NCCC5)ccc32)c1 (stereo not shown) [Example 163] : 3.8

The following compounds each have a reported value; give each one's IC50.
1. O=C(O)C[C@H](c1cnc2ccccc2n1)n1ncc2cc(OCCc3ccc4c(n3)NCCC4)ccc21 [Example 16]
2. O=C(O)CC(c1cnc2ncccc2c1)n1ncc2cc(OCCc3ccc4c(n3)NCCC4)ccc21 (stereo not shown) [Example 101, TFA]

137
5.7

Origin of measurements: patent US10745384B2
